Source listed as patent US9301951B2.

// reported IC50 for each item listed
experimental-target: rat NaP2b (SLC34A2) (Rattus norvegicus)
Construct: host or cells: HEK293
method-summary: Inhibition of NaP2b-mediated Pi (33P) uptake in transfected HEK293 cells, rat NaP2b
Assay type: cell-based
setup-conditions: HEK293 cells transfected with rat NaP2b, 100 uM phosphate, 0.1 nM to 30 uM, read-out: pIC50 range for rat Nap2b (converted)

Would you please look over these solved cases?
# molecule, experimental-target, IC50
measured = [
    ("CCN(CC)c1ccc(NC(=O)c2cccc(C(=O)N(C)CCN3CCCN(C(=O)OCCOCCOCCOCCOCCOCCOCCOCCOCCOCCOCCOC)CC3)c2)c(-c2cc(C(=O)N[C@H]3CCCc4ccccc43)ccn2)c1", "rat NaP2b (SLC34A2) (Rattus norvegicus)", "1 to 7.94 µM"),
    ("CN(CCN1CCOCC1)C(=O)c1cccc(C(=O)Nc2ccc(N3CCCCC3)cc2-c2cc(C(=O)N[C@H]3CCCc4ccccc43)ccn2)c1", "rat NaP2b (SLC34A2) (Rattus norvegicus)", "< 1 µM"),
    ("O=C(O)CCSCc1cccc(C(=O)Nc2ccc(N3CCCCC3)cc2-c2cc(C(O)CCc3ccccc3)ccn2)c1 (stereo not drawn)", "rat NaP2b (SLC34A2) (Rattus norvegicus)", "10 to 31.6 µM"),
    ("CCN(CC)c1ccc(NC(=O)c2cccc(C(=O)N(C)CCN(C)CCOCCOCCOCCNC(=O)C(C)(C)C)c2)c(-c2cc(C(=O)NCc3cccc(C(F)(F)F)c3)ccn2)c1", "rat NaP2b (SLC34A2) (Rattus norvegicus)", "1 to 7.94 µM"),
    ("O=C(O)CCSCc1cccc(C(=O)Nc2ccc(N3CCCCC3)cc2-c2cc(C(=O)NCc3cccc(C(F)(F)F)c3)ccn2)c1", "rat NaP2b (SLC34A2) (Rattus norvegicus)", "1 to 7.94 µM"),
]

Consider now this further molecule.
Asked: Return IC50 for the following molecule: CCCN(CCC)c1ccc(NC(=O)c2cccc(CSCCC(=O)O)c2)c(-c2cc(C(=O)NCc3cccc(C(F)(F)F)c3)ccn2)c1
Given back: 1 to 7.94 µM

====

experimental-target: rat NaP2b (SLC34A2) (Rattus norvegicus, UniProt Q9JJ09)
Construct: host or cells: HEK293
Sequence (Q9JJ09 whole entry): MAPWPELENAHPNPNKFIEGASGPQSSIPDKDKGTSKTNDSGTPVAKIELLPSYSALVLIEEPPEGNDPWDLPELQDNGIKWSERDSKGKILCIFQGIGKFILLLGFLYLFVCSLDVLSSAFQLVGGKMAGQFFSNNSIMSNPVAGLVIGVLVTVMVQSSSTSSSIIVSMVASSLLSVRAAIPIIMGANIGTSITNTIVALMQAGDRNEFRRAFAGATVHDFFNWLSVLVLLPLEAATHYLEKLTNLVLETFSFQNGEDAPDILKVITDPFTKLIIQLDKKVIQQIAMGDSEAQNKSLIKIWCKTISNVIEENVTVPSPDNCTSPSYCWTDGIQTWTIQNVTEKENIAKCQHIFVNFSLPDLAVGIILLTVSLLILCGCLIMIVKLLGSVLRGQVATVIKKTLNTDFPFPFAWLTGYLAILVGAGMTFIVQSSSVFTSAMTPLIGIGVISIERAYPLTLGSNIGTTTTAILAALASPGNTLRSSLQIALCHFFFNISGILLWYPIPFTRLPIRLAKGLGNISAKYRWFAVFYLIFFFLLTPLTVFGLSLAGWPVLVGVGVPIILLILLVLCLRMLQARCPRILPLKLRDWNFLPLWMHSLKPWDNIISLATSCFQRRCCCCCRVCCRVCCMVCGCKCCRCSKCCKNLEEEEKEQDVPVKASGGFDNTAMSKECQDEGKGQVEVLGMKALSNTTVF
method-summary: Inhibition of NaP2b-mediated Pi (33P) uptake in transfected HEK293 cells, rat NaP2b
Assay type: cell-based
setup-conditions: HEK293 cells transfected with rat NaP2b, 100 uM phosphate, 0.1 nM to 30 uM, read-out: pIC50 range for rat Nap2b (converted)
quantity-name: IC50

# compound, experimental-target, IC50
rows = [
    ("CCN(CC)c1ccc(NC(=O)c2cccc(COCCOCCOCCOCCOC(=O)NC(CO)(CO)CO)c2)c(-c2cc(C(=O)NCc3cccc(C(F)(F)F)c3)ccn2)c1 [Example 177]", "rat NaP2b (SLC34A2) (Rattus norvegicus, UniProt Q9JJ09)", "1 to 7.94 µM"),
]

Asked: Return IC50 for the following compound: CC(C)COc1ccc(NC(=O)c2cccc(CSCCC(=O)O)c2)c(-c2cc(C(=O)NCc3cccc(C(F)(F)F)c3)ccn2)c1 [Example 33]
Given back: 10 to 31.6 µM

Asked: Return IC50 for the following compound: CC(C)(C)OC(=O)N1CCCN(Cc2cccc(C(=O)Nc3ccc(N4CCCCC4)cc3-c3cc(C(=O)NCc4cccc(C(F)(F)F)c4)ccn3)c2)CC1 [Example 44]
Given back: 10 to 31.6 µM

Asked: Return IC50 for the following compound: CCN(CC)c1ccc(NC(=O)c2cccc(Cn3ccc4c(C(=O)NCCOCCOCCOCCC(=O)O)cccc43)c2)c(-c2cc(C(=O)N[C@H]3CCCc4ccccc43)ccn2)c1 [Example 182]
Given back: < 1 µM

Asked: Return IC50 for the following compound: COCCN(CCOC)c1ccc(NC(=O)c2cccc(CSCCC(=O)O)c2)c(-c2cc(C(=O)NCc3cccc(C(F)(F)F)c3)ccn2)c1 [Example 17]
Given back: 1 to 7.94 µM

Asked: Return IC50 for the following compound: CN1CCCN(Cc2cccc(C(=O)Nc3ccc(N4CCCCC4)cc3-c3cc(C(=O)NCc4cccc(C(F)(F)F)c4)ccn3)c2)CC1 [Example 45]
Given back: 10 to 31.6 µM
